Target: T1, Human C3 (human, UniProt P01024 23-1663)
T1 construct: In SPR the bought human C3 was immobilised on CM5 chips by amine coupling; In the haemolysis assay the C3 is that of diluted human serum; also called complement C3
T1 sequence (P01024 23-1663 limits assumed): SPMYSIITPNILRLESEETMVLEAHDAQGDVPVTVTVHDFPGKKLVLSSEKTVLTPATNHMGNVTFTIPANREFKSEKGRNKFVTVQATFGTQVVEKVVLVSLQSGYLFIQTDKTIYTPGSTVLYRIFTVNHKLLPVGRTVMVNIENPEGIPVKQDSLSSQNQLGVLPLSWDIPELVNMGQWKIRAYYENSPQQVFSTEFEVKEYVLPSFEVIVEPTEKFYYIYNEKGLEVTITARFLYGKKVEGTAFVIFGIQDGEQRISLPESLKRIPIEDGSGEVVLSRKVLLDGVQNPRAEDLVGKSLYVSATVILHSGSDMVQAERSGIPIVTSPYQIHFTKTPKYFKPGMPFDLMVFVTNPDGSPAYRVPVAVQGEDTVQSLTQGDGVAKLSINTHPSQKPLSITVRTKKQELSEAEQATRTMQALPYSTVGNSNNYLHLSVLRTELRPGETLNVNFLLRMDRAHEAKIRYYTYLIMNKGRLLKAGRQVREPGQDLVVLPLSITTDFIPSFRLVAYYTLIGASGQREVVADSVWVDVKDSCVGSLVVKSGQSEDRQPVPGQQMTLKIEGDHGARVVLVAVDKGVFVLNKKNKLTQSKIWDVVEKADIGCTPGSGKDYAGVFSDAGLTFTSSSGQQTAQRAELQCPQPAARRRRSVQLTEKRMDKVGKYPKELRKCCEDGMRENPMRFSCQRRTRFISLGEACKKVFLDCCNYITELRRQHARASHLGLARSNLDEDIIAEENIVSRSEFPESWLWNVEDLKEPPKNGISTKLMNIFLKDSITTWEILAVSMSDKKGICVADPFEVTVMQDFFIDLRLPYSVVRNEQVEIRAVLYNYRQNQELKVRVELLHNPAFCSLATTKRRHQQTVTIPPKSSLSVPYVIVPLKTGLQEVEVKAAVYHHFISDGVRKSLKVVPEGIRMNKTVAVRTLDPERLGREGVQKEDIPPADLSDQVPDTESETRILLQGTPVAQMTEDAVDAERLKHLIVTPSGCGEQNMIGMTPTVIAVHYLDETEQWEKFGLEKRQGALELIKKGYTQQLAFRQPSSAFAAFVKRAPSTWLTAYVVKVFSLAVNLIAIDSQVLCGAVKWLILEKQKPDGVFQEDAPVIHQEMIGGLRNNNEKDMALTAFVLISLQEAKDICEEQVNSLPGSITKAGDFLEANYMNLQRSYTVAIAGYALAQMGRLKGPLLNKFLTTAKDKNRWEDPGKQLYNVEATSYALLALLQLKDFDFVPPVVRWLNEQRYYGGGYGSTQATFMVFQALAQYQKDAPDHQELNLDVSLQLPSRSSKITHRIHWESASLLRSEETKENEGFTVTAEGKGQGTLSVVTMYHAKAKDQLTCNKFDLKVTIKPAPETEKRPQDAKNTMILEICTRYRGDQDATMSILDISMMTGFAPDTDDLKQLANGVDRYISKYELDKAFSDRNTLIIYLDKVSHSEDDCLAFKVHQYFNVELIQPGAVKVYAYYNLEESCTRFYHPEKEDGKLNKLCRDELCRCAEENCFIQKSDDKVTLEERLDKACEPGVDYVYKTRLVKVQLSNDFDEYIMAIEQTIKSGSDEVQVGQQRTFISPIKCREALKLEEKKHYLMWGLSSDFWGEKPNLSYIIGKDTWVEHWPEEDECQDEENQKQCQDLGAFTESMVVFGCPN
Test: SPR, C3 immobilised
Starred links: 1 amine or outer side, 2 acyl side, 3 side chain; linkers in the order of their positions; H or OH if unused. Positions of bridges follow the written chain, without caps; N, C: chain ends. Non-standard residues stand in square brackets, D forms with d. Groups on a side chain read outwards from the residue. *: point of attachment. Trp(1-Me) = Cn1cc(C[C@H](N)C(=O)O)c2ccccc21; C18 diacid = O=C(O)CCCCCCCCCCCCCCCCC(=O)*; γGlu = O=C(O)[C@H](CCC(=O)[*:2])N[*:1]; hCys = N[C@@H](CCS)C(=O)O; AEEA = NCCOCCOCC(=O)O; Sar = CNCC(=O)O
Each entry below carries its reported Kd.
Use nM as the unit, but write only the number.

{"binder": "Ac-SEF[hCys]I[Trp(1-Me)]QDW[Sar]EHRA[Sar]E[AEEA][AEEA]K([γGlu-Gly-γGlu-C18 diacid])-NH2 (thioether 4-14) [Compound 164]", "test value": 6.4}

Moving on to another binder below.
Request: Need Kd of Ac-SEFAI[Trp(1-Me)]QDWGEHR[hCys][Sar]EGAK([AEEA-γGlu-AEEA-Gly-γGlu-C18 diacid])-NH2 (thioether 4-14; not fully specified) [Compound 154] , thanks.
Result: 2.4
